- Test system: HPPD polypeptides (wild-type SEQ ID NO:1 and mutants)
- test_context: in the presence of diketonitrile (DKN), 60 μM inhibitor, high substrate concentration; total change in signal normalized to no inhibitor

- molecule: "10 (protein, mutant HPPD polypeptide) MADLYENPMGLMGFEFIEFASPTPGTLEPIFEIMGFTKVATHRSKNVHLYRQGEINLILNNEPNSIASYFAAEHGPSVCGMAFRVKDSQKAYNRALELGAQPIHIDTGPMELNLPAIKGIGGAPLYLIDRFGEGSSIYDIDFVYLEGVERNPVGAGLKVIDHLTHNVYRGRMVYWANFYEKLFNFREARYFDIKGEYTGLTSKAMSAPDGMIRIPLNEESSKGAGQIEEFLMQFNGEGIQHVAFLTDDLVKTWDALKKIGMRFMTAPPDTYYEMLEGRLPDHGEPVDQLQARGILLDGSSVEGDKRLLLQIFSETLMGPVFFEFIQRKGDDGFGPDSFKVLFESVERDQVRRGVLTAD"
  Residual turnover: "n.i."
